Examples of compounds with documented melting point follow.

Cn1cncc1C(N)(c1ccc(C#N)cc1)c1ccc2c(c1)c(-c1cccc(Cl)c1)cc(=O)n2C (stereo unspecified); 245 °C
COC(=O)CCCc1cc2cc(Cl)ccc2n1S(=O)(=O)c1cc(C)cc(C)c1; 140 to 143 °C
CC(=O)OCC1OC(n2c(Br)c(C#N)c3cc(Cl)c(Cl)cc32)C(O)C1O (stereo unspecified); 103 to 105 °C

Input: Data request, read-out melting point, for O=C(O)c1c[nH]c2c(OCC3CN(Cc4ccccc4)CCN3Cc3ccccc3)c(F)c(F)cc2c1=O (stereo unspecified)
Output: 158 to 159 °C

Input: And what about the compound COc1cccc(-c2c[nH]c3ncnc(N)c23)c1 ?
Output: 188 to 190 °C

Input: And what about the compound COC(=O)c1nc(C)c(-c2nccs2)s1 ?
Output: 129 to 130 °C

Input: And what about the compound Cc1cc(C(c2cc(C)sc2C)c2cc(C)sc2C)c(C)s1 ?
Output: 143 to 144 °C

Input: And what about the compound NC(=O)C(Nc1ccccc1C(=O)C1CC1)c1c(Cl)cccc1Cl (stereo unspecified) ?
Output: 196 °C

Input: And what about the compound Cc1nc2c(OCc3ccccc3)cc(CO)cc2n1C ?
Output: 213 to 214 °C

Input: And what about the compound Cc1c(CCl)ncn1S(=O)(=O)N(C)C ?
Output: 115 to 118 °C

Input: And what about the compound CN(CCCNC(=O)CSc1nc2ccc(N(C)C)nc2s1)Cc1ccc(Cl)c(Cl)c1 ?
Output: 92 to 93 °C

Input: And what about the compound O=C1c2ccc(Cl)cc2OCN1CCO[N+](=O)[O-] ?
Output: 86 to 88 °C

---

property measured: melting point (°C)
Entry rule: numbers only, all in °C.

OC(CN1CCC(C(O)c2ccccc2)CC1)c1ccccc1 (stereo not given); 104

Input: Data request, read-out melting point, for O=c1ccc(-c2ccc(O)cc2)cn1Cc1ccc(Cl)cc1F
Output: 207

---

property measured: melting point

Worked examples follow.
O=C(Nc1c(Cl)cncc1Cl)c1ccc(OC(F)F)c2oc3ccc([N+](=O)[O-])cc3c12; > 270 °C
Cn1c(=O)cc(CBr)c2ccccc21; 188 to 190 °C
Cc1nnc(C(CCN2CC3CC4CC(C3)CC2C4)(c2ccccc2)c2ccccc2)o1; 120 to 121 °C
O=C(Nc1ccccc1F)c1c[nH]c2c1C(=O)CCC2; 238 to 240 °C
COc1cccc(/C=C/C2=CCN(Cc3nc4ccccc4[nH]3)CC2)c1; 202 to 204 °C

Input: Data request, read-out melting point, for COC(=O)[C@@H](NC(=O)Nc1n[nH]c(=S)s1)c1ccccc1
Output: 137 to 139 °C

Input: And what about the compound FC(F)(F)C(F)(F)CCCSCCCCCOc1ccc(C2=C(c3ccccc3)CCCc3ccccc32)cc1 ?
Output: 84 to 85 °C

Input: And what about the compound CC(C)(C)c1nc(-c2ccccc2)[nH]c1C(C)(C)C ?
Output: 156 to 158 °C

Input: And what about the compound CCOCc1nc2c(N)nc(C)c(C)c2n1CCNC(=O)Nc1ccccc1 ?
Output: 110 °C

---

property measured: melting point

O=C(O)c1cc2ccccc2c(Cl)c1O; 234 to 235 °C
Clc1ccc(COCCOc2ccc(-c3ccccc3)cc2)cc1; 85 to 87 °C
Cc1nnc(-c2ccc3occ(-c4ccc(F)cc4)c3c2)o1; 130 to 131 °C
CN(C)Cc1ccc(C(=O)CCC(=O)N2CCN(c3ccc(N4C[C@H](CNC(=S)C5CC5)OC4=O)cc3F)CC2)cc1; 174 to 175 °C

Here is another compound to look at.
Input: Data request, read-out melting point, for COc1ccc(CCC(=O)O)c(Cl)c1Cl
Output: 141 to 143 °C

---

property measured: melting point

CCOc1ccc([N+](=O)[O-])cn1; 85 to 88 °C
O=c1[nH]nc(Cl)cc1Br; 205 to 206 °C
O=C(O)CCCCCCCn1ccnc1; 91 to 94 °C
CC1(C)CC(NC(=O)NC23CC4CC(CC(C4)C2)C3)CC(C)(C)C1=O; 234 to 238 °C
CCCCCCCCCCCCCCCC(=O)C(O)C(=O)C(O)C(=O)CCCCCCCCCCCCCCC (stereo not given); 80 to 81 °C

Here is another compound to look at.
Input: Data request, read-out melting point, for CC(C)Cn1cnc2c(O)nc3ccccc3c21
Output: > 300 °C

---

Examples of compounds with documented melting point follow.

CCCCC(C)(C)C=CC(OC(C)=O)C1C(C)CC2OC(=O)CC21 (stereo unspecified); 83 to 83.5 °C

Input: Data request, read-out melting point, for C=CC(=O)NCC(C(=O)c1ccccc1)C(=O)c1ccccc1
Output: 146 to 148 °C

Input: And what about the compound Cc1ccc2[nH]c(CO)cc2c1 ?
Output: 94 to 95 °C

Input: And what about the compound O=C(CNc1ccc2[nH]c(=O)[nH]c2c1)N1CCC(Oc2ccc(Cl)cc2)CC1 ?
Output: 201 to 205 °C

Input: And what about the compound NNP(=S)(NN)Oc1ccccc1 ?
Output: 94 to 95 °C

Input: And what about the compound CC1=CC(OC(=O)c2ccc(N)cc2)C(O)C(C)(C)CC1=O (stereo unspecified) ?
Output: 152 to 153 °C

---

property measured: melting point

Cc1nc2cccc(O)c2o1; 152 to 154 °C
CCCC(Cl)(Cl)C(NC(=O)c1ccc(Cl)cc1)NC(=NC#N)Nc1cccnc1 (stereo not given); 192 to 193 °C
CC(C)c1ccccc1NC(=O)c1ccccc1SSc1ccccc1C(=O)Nc1ccccc1C(C)C; 235 to 237 °C
Cc1c(C(=O)OCc2ccccc2)sc(NC(=O)c2ccccc2)c1C(=O)OC(C)(C)C; 134 to 135 °C
CS(=O)(=O)c1ccc(C(CC2CCCC2)C(=O)O)cc1Cl (stereo not given); 124 to 126 °C
CCCCC(=O)N(Cc1ccc(-c2ccccc2S(=O)(=O)N=CN(C)C)cc1)C(C#N)C(=O)OCC (stereo not given); 130 to 132 °C
CNC(=O)N(C)c1nnc(C(C)(C)CCl)s1; 159 to 161 °C
O=C(O)Cc1ccc(N2Cc3ccccc3C2=O)cc1; 210 to 211 °C

Input: Data request, read-out melting point, for O=C(Nc1ccc(Cl)c(C(=O)Nc2ccccc2)c1O)Nc1cccc(Cl)c1Cl
Output: 244 to 245 °C

Input: And what about the molecule C=C(C)C(=O)NCC(=O)Nc1cc(Cl)c(C)c(Cl)c1O ?
Output: 217 to 218 °C

---

property measured: melting point

CC(C)(C)c1cc(SC2CC(=O)N(c3ccc(N4C(=O)CC(Sc5cc(C(C)(C)C)c(O)c(C(C)(C)C)c5)C4=O)cc3)C2=O)cc(C(C)(C)C)c1O (stereo unspecified); 274 to 278 °C
NC(=S)NCCCCCC(=O)Nc1ccc(C(F)(F)F)cc1; 140 to 142 °C
O=C(NC1C(=O)N(CC23CC4CC(CC(C4)C2)C3)c2ccccc2N(c2ccccc2)C1=O)Oc1ccccc1 (stereo unspecified); 205 to 207 °C
Cc1cccc(NC(=O)NCC(=O)N(c2ccccc2)C(C(=O)OC(C)(C)C)c2ccc(N)cc2)c1 (racemic); 108 °C
CC(C)Nc1nc(NN)nc(Cl)c1-c1c(F)cc(F)cc1F; 143 to 150 °C

Input: Data request, read-out melting point, for O=C1C(c2ccccc2)=C(c2ccccc2)C(=O)N1Cc1cccc(F)c1
Output: 107 to 108 °C

Input: And what about the compound CC(C)(C)NCC(O)COc1ccc(N)cc1 (stereo unspecified) ?
Output: 125 to 127 °C

Input: And what about the compound C1=C(CC2=NCCN2)CCc2ccccc21 ?
Output: 221 to 223 °C

Input: And what about the compound COc1cc(O)ccc1/C=C/C(=O)CC(=O)/C=C/c1cc(OCc2ccccc2)ccc1-c1ccccc1 ?
Output: 175 to 180 °C

Input: And what about the compound CC(=O)c1cc2c(cc1Cl)C(C)(C)CC2(C)C ?
Output: 69 to 71 °C

---

Examples of compounds with documented melting point follow.

Cc1cc(CCCOc2c(C)cc(-c3noc(=O)[nH]3)cc2C)on1; 194 to 195 °C
CS(=O)(=O)c1ccc(Cl)c(-c2n[nH]c3nc(Oc4ccc(F)cc4F)ncc23)c1; 252 °C
O=C(c1ccco1)N1CCN[C@@H]2CCCC[C@@H]21; 47 to 50 °C
Clc1cc(Cl)c2nc[nH]c2n1; 263 °C
COC(=O)CNC(=O)[C@H](NC(=O)OCC1c2ccccc2-c2ccccc21)C(C)C; 148 to 150 °C
COc1nc(C)nc(NC(=O)NS(=O)(=O)c2c(Cl)cccc2C(C)F)n1 (configuration not stated); 181 to 183 °C
Cc1cccc(COc2cccc3c2CN(C2CCC(=O)NC2=O)C3=O)c1 (configuration not stated); 244 to 246 °C
O=C1Nc2ccccc2N(C(=O)C2CC2)c2cscc21; 245 to 247 °C

Input: Data request, read-out melting point, for NC(=O)[C@@H]1CCCN1C(=O)CNP(=O)(Cc1ccccc1)Cc1ccccc1
Output: 91 to 95 °C

Input: And what about the compound O=C(NO)c1ccc(-c2ccc3nnn(Cc4ccc5ncccc5c4)c3n2)cc1F ?
Output: 180 to 182 °C

Input: And what about the compound CCOC(=O)C(C(=O)OCC)c1ccc(Br)cc1[N+](=O)[O-] ?
Output: 54 to 55 °C

Input: And what about the compound Cc1cc(=O)oc2cc(OS(N)(=O)=O)ccc12 ?
Output: 161 to 164 °C

Input: And what about the compound CN1c2ccccc2C(c2ccccc2F)=NCC1CNC(=O)C(Cc1c[nH]c2ccccc12)NC(=O)OC(C)(C)C (configuration not stated) ?
Output: 124 °C

Input: And what about the compound CCCc1ccc2nc(C#N)c(S(N)(=O)=O)n2n1 ?
Output: 237 to 244 °C

Input: And what about the compound CC(C)(C)SC[C@H](NC(=O)C(CS)Cc1ccccc1)C(=O)O (some centres not stated) ?
Output: 68 to 75 °C

Input: And what about the compound Clc1ccc(C(=Cc2ccccc2Cl)Cn2cncn2)cc1 ?
Output: 106 to 110 °C

Input: And what about the compound O=C(Nc1ccccc1)N1CC2CCC(C1)O2 ?
Output: 184 to 186 °C

All figures here come from a melting point compilation (Tetko et al.; mined from patent text by program, amines drawn as free bases though some values may be those of a salt).
